Documented pIC50 across a set of molecules
- Target Under Test: recombinant eIF4E (Homo sapiens (Human))
- Sequence (P06730 whole entry): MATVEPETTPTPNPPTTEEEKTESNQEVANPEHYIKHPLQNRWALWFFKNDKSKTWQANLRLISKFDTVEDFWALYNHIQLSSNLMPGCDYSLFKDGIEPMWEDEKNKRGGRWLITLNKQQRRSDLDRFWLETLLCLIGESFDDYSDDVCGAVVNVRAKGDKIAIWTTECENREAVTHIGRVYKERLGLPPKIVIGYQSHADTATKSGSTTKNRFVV
- Measurement Description: Fluorescence polarization competition assay for eIF4E binding potency
- Conditions: inhibition of eIF4E/EDA-m7GDP-ATTO-550 binding; calculated IC50 values, Table 4B; read-out: IC50
Keep it numeric: pIC50 is minus log10 of the concentration in mol/L.

Reference set, count: 2
Molecule: CCc1cc(-c2cc(Cl)ccc2OCCn2c(C)nc3cc(C(F)(F)F)c(CC4CCN(C)CC4)c(C#N)c3c2=O)c2scc(C(=O)O)c2n1
pIC50: 7.23
--
Molecule: Cc1nc2cc(C(F)(F)F)c(Cl)c(C#N)c2c(=O)n1CCOc1ccc(Cl)cc1-c1ccnc2c(C(=O)O)csc12
pIC50: 7.43

Please turn your attention to the following entry.
Q: Param item = Cc1nc2cnc(C3CCCN(CC(F)F)C3)c(C#N)c2c(=O)n1CCCc1ccc(Cl)cc1-c1ccnc2c(C(=O)O)csc12 (stereo not drawn) ; retrieve measured pIC50.
Result: 7.69

Sourced from patent US11286268B1
